# targetOfAssay: KMO mouse enzyme (Mus musculus, UniProt Q91WN4)
# Construct: KMO enzyme prepared at Evotec from mouse liver (4-6 weeks old) via mitochondria isolation; from tissue; host or cells: mouse liver (4-6 weeks old), isolated mitochondria
# Sequence (Q91WN4 whole entry): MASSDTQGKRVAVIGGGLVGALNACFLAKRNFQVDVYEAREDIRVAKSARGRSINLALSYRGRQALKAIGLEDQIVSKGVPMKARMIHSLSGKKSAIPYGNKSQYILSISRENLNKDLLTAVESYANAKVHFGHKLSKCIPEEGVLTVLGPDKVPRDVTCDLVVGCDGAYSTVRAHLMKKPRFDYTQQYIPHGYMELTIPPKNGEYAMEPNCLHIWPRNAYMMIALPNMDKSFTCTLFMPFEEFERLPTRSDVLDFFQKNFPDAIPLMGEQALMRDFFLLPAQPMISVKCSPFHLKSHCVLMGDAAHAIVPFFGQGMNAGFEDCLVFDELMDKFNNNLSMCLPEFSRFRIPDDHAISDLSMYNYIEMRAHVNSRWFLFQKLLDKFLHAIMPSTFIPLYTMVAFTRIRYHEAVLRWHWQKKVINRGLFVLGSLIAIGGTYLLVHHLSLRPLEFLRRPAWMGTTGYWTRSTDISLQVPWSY
# assaySummary: KMO mouse enzyme assay: L-Kynurenine hydroxylation to 3OH-KYN by LC/MS
# Format: biochemical
# conditions: compound at 10 μM; KMO from mouse liver mitochondria; read-out: INH.Mouse @ 10 μM
quantityKind: inhibition at 10 µM (%)
Number in %, nothing else.

So what's the measured inhibition at 10 µM for this one? `CON=C(CCC(=O)Nc1ccc(C)nc1)c1ccc(Cl)c(Cl)c1` 82.9

Sample `CON=C(CCC(=O)N1CCC(C)CC1)c1ccc(Cl)c(Cl)c1` — what was its inhibition at 10 µM? 57.3

Any idea what its inhibition at 10 µM is? The compound is CON=C(CCc1noc(C)n1)c1ccc(Cl)c(Cl)c1 (single isomer, unassigned) 87.2

If you can, please state the reported inhibition at 10 µM value of `COC(=O)CCC(=NOCCNC(=O)OC(C)(C)C)c1ccc(Cl)c(Cl)c1` . 56.4

Entry CON=C(c1ccc(Cl)c(Cl)c1)C1C[C@@H]1C(=O)OC (some centres unmarked) has what inhibition at 10 µM? 61

For the compound shown here, `CON=C(CCC(=O)Nc1ncc(C)nc1C)c1ccc(Cl)c(Cl)c1` , give the reported inhibition at 10 µM. 101

Reported inhibition at 10 µM for `CON=C(CCC(=O)N1CCCCC1)c1ccc(Cl)c(Cl)c1` : what is it? 60.4

Value lookup for inhibition at 10 µM; key = `CO/N=C(\CCC(=O)N1CCOCC1)c1ccc(Cl)c(Cl)c1` 63.4
